Assay: Sensitivity of photosensitive layer with 2,4,6-tris(trichloromethyl)-s-triazine (Example 9)
Conditions: 650 nm; energy necessary for hardening; s-triazine radical generator
Assay metric: Sensitivity (mJ/cm^2)
Entry rule: numbers only, all in mJ/cm^2.

Field request: Sensitivity | item: "CC(C)CN1C(=CC2=C([O-])C(=CC3=[N+](CC(C)C)c4ccc5ccccc5c4C3(C)C)C2=O)C(C)(C)c2c1ccc1ccccc21"
0.56

Field request: Sensitivity | item: "CC(C)N1C(=CC2=C([O-])C(=CC3=[N+](C(C)C)c4ccc5ccccc5c4C3(C)C)C2=O)C(C)(C)c2c1ccc1ccccc21"
0.40

Field request: Sensitivity | item: CCCCN1C(=CC2=C([O-])C(=CC3=[N+](CCCC)c4ccc5ccccc5c4C3(C)C)C2=O)C(C)(C)c2c1ccc1ccccc21 [Compound 7]
0.40

* * *

Experiment: Sensitivity of photosensitive layer with 2,4,6-tris(trichloromethyl)-s-triazine (Example 9)
Details: 630 nm; energy necessary for hardening; s-triazine radical generator
Assay metric: Sensitivity (mJ/cm^2)
Entry rule: numbers only, all in mJ/cm^2.

Field request: Sensitivity | item: "CCN1C(=CC2=C([O-])C(=CC3=[N+](CC)c4ccc5ccccc5c4C3(C)C)C2=O)C(C)(C)c2c1ccc1ccccc21"
0.47

Field request: Sensitivity | item: "CCCN1C(=CC2=C([O-])C(=CC3=[N+](CCC)c4ccc5ccccc5c4C3(C)C)C2=O)C(C)(C)c2c1ccc1ccccc21"
0.47

Field request: Sensitivity | item: CCCCN1C(=CC2=C([O-])C(=CC3=[N+](CCCC)c4ccc5ccccc5c4C3(C)C)C2=O)C(C)(C)c2c1ccc1ccccc21 [Compound 4]
0.39

* * *

Test: Sensitivity of photosensitive layer with 2,4,6-tris(trichloromethyl)-s-triazine (Example 9)
Details: 680 nm; energy necessary for hardening; s-triazine radical generator
Assay metric: Sensitivity (mJ/cm^2)
Entry rule: numbers only, all in mJ/cm^2.

Field request: Sensitivity | item: CN1C(=CC2=C([O-])C(=CC3=[N+](C)c4ccc5ccccc5c4C3(C)C)C2=O)C(C)(C)c2c1ccc1ccccc21 [A, reference compound]
0.65

Field request: Sensitivity | item: CC(C)CN1C(=CC2=C([O-])C(=CC3=[N+](CC(C)C)c4ccc5ccccc5c4C3(C)C)C2=O)C(C)(C)c2c1ccc1ccccc21 [Compound 5]
0.28

Field request: Sensitivity | item: CCCCCN1C(=CC2=C([O-])C(=CC3=[N+](CCCCC)c4ccc5ccccc5c4C3(C)C)C2=O)C(C)(C)c2c1ccc1ccccc21 [Compound 6]
0.37

Field request: Sensitivity | item: CCN1C(=CC2=C([O-])C(=CC3=[N+](CC)c4ccc5ccccc5c4C3(C)C)C2=O)C(C)(C)c2c1ccc1ccccc21 [Compound 1]
0.37

Field request: Sensitivity | item: CCCCN1C(=CC2=C([O-])C(=CC3=[N+](CCCC)c4ccc5ccccc5c4C3(C)C)C2=O)C(C)(C)c2c1ccc1ccccc21 [Compound 7]
0.37

Field request: Sensitivity | item: CCCCN1C(=CC2=C([O-])C(=CC3=[N+](CCCC)c4ccc5ccccc5c4C3(C)C)C2=O)C(C)(C)c2c1ccc1ccccc21 [Compound 4]
0.37

Field request: Sensitivity | item: CC(C)N1C(=CC2=C([O-])C(=CC3=[N+](C(C)C)c4ccc5ccccc5c4C3(C)C)C2=O)C(C)(C)c2c1ccc1ccccc21 [Compound 3]
0.26

Field request: Sensitivity | item: CCCN1C(=CC2=C([O-])C(=CC3=[N+](CCC)c4ccc5ccccc5c4C3(C)C)C2=O)C(C)(C)c2c1ccc1ccccc21 [Compound 2]
0.37

* * *

Experiment: Optical absorption property in chloroform
Type: physicochemical
Settings: solvent chloroform
Assay metric: logε
Returns: the value as a bare number; no unit string appended.

Field request: logε | item: CC(C)N1C(=CC2=C([O-])C(=CC3=[N+](C(C)C)c4ccc5ccccc5c4C3(C)C)C2=O)C(C)(C)c2c1ccc1ccccc21 [Compound 3]
5.5

Field request: logε | item: CC(C)CCN1C(=CC2=C([O-])C(=CC3=[N+](CCC(C)C)c4ccc5ccccc5c4C3(C)C)C2=O)C(C)(C)c2c1ccc1ccccc21 [Compound 8]
5.5

Field request: logε | item: CCCCCCN1C(=CC2=C([O-])C(=CC3=[N+](CCCCCC)c4ccc5ccccc5c4C3(C)C)C2=O)C(C)(C)c2c1ccc1ccccc21 [Compound 9]
5.5

* * *

Assay: Optical absorption property in chloroform
Assay type: physicochemical
Conditions: solvent chloroform
Assay metric: logε
Returns: the value as a bare number; no unit string appended.

Field request: logε | item: "CCCN1C(=CC2=C([O-])C(=CC3=[N+](CCC)c4ccc5ccccc5c4C3(C)C)C2=O)C(C)(C)c2c1ccc1ccccc21"
5.5

Field request: logε | item: "CC(C)CN1C(=CC2=C([O-])C(=CC3=[N+](CC(C)C)c4ccc5ccccc5c4C3(C)C)C2=O)C(C)(C)c2c1ccc1ccccc21"
5.5

Field request: logε | item: "CCCCCN1C(=CC2=C([O-])C(=CC3=[N+](CCCCC)c4ccc5ccccc5c4C3(C)C)C2=O)C(C)(C)c2c1ccc1ccccc21"
5.5

* * *

Assay: Sensitivity of photosensitive layer with 2,4,6-tris(trichloromethyl)-s-triazine (Example 9)
Conditions: 630 nm; energy necessary for hardening; s-triazine radical generator
Assay metric: Sensitivity (mJ/cm^2)
Entry rule: numbers only, all in mJ/cm^2.

Field request: Sensitivity | item: CC(C)N1C(=CC2=C([O-])C(=CC3=[N+](C(C)C)c4ccc5ccccc5c4C3(C)C)C2=O)C(C)(C)c2c1ccc1ccccc21 [Compound 3]
0.39

Field request: Sensitivity | item: CCCCCN1C(=CC2=C([O-])C(=CC3=[N+](CCCCC)c4ccc5ccccc5c4C3(C)C)C2=O)C(C)(C)c2c1ccc1ccccc21 [Compound 6]
0.56

Field request: Sensitivity | item: CC(C)CN1C(=CC2=C([O-])C(=CC3=[N+](CC(C)C)c4ccc5ccccc5c4C3(C)C)C2=O)C(C)(C)c2c1ccc1ccccc21 [Compound 5]
0.47

Field request: Sensitivity | item: CN1C(=CC2=C([O-])C(=CC3=[N+](C)c4ccc5ccccc5c4C3(C)C)C2=O)C(C)(C)c2c1ccc1ccccc21 [A, reference compound]
0.91

Field request: Sensitivity | item: CCCCN1C(=CC2=C([O-])C(=CC3=[N+](CCCC)c4ccc5ccccc5c4C3(C)C)C2=O)C(C)(C)c2c1ccc1ccccc21 [Compound 7]
0.47

* * *

Experiment: Sensitivity of photosensitive layer with 2,4,6-tris(trichloromethyl)-s-triazine (Example 9)
Details: 650 nm; energy necessary for hardening; s-triazine radical generator
I'd be grateful if you could share measured Sensitivity for these entries.
Entry rule: numbers only, all in mJ/cm^2.

Field request: Sensitivity | item: CN1C(=CC2=C([O-])C(=CC3=[N+](C)c4ccc5ccccc5c4C3(C)C)C2=O)C(C)(C)c2c1ccc1ccccc21 [A, reference compound]
0.56

Field request: Sensitivity | item: CCCCN1C(=CC2=C([O-])C(=CC3=[N+](CCCC)c4ccc5ccccc5c4C3(C)C)C2=O)C(C)(C)c2c1ccc1ccccc21 [Compound 4]
0.40

Field request: Sensitivity | item: "CCN1C(=CC2=C([O-])C(=CC3=[N+](CC)c4ccc5ccccc5c4C3(C)C)C2=O)C(C)(C)c2c1ccc1ccccc21"
0.40

Field request: Sensitivity | item: "CCCN1C(=CC2=C([O-])C(=CC3=[N+](CCC)c4ccc5ccccc5c4C3(C)C)C2=O)C(C)(C)c2c1ccc1ccccc21"
0.40

Field request: Sensitivity | item: "CCCCCN1C(=CC2=C([O-])C(=CC3=[N+](CCCCC)c4ccc5ccccc5c4C3(C)C)C2=O)C(C)(C)c2c1ccc1ccccc21"
0.40

* * *

I'd be grateful if you could share measured Relative value of degraded rate for these entries.
Experiment: Degraded rate of squarylium compound in photosensitive resin solution with 2,4,6-tris(trichloromethyl)-s-triazine (Example 7)
Type: physicochemical
Details: 40° C., 3 days, light-screened, ethyl cellosolve, relative to Compound (A)
Returns: the value as a bare number; no unit string appended.

Field request: Relative value of degraded rate | item: "CC(C)N1C(=CC2=C([O-])C(=CC3=[N+](C(C)C)c4ccc5ccccc5c4C3(C)C)C2=O)C(C)(C)c2c1ccc1ccccc21"
0.24

Field request: Relative value of degraded rate | item: CN1C(=CC2=C([O-])C(=CC3=[N+](C)c4ccc5ccccc5c4C3(C)C)C2=O)C(C)(C)c2c1ccc1ccccc21 [A, reference compound]
1.0

Field request: Relative value of degraded rate | item: "CCCN1C(=CC2=C([O-])C(=CC3=[N+](CCC)c4ccc5ccccc5c4C3(C)C)C2=O)C(C)(C)c2c1ccc1ccccc21"
0.25

Field request: Relative value of degraded rate | item: CCCCN1C(=CC2=C([O-])C(=CC3=[N+](CCCC)c4ccc5ccccc5c4C3(C)C)C2=O)C(C)(C)c2c1ccc1ccccc21 [Compound 4]
0.29

* * *

Test: Degraded rate of squarylium compound in photosensitive resin solution with iron(II) hexafluorophosphate complex (Example 8)
Assay type: physicochemical
Set-up: key: degraded rate relative to that of Compound (A)
Conditions: 40° C., 32 days, light-screened, ethyl cellosolve, relative to Compound (A)
Labelling: Relative value of degraded rate reported below 0.5 becomes class 1; at or above becomes class 0.

A record lists "CCCN1C(=CC2=C([O-])C(=CC3=[N+](CCC)c4ccc5ccccc5c4C3(C)C)C2=O)C(C)(C)c2c1ccc1ccccc21" . Is its Relative value of degraded rate below 0.5?
class 1

A record lists "CCCCCN1C(=CC2=C([O-])C(=CC3=[N+](CCCCC)c4ccc5ccccc5c4C3(C)C)C2=O)C(C)(C)c2c1ccc1ccccc21" . Is its Relative value of degraded rate below 0.5?
class 1

A record lists CCCCN1C(=CC2=C([O-])C(=CC3=[N+](CCCC)c4ccc5ccccc5c4C3(C)C)C2=O)C(C)(C)c2c1ccc1ccccc21 [Compound 7] . Is its Relative value of degraded rate below 0.5?
class 0

A record lists CN1C(=CC2=C([O-])C(=CC3=[N+](C)c4ccc5ccccc5c4C3(C)C)C2=O)C(C)(C)c2c1ccc1ccccc21 [A, reference compound] . Is its Relative value of degraded rate below 0.5?
class 0

A record lists "CC(C)N1C(=CC2=C([O-])C(=CC3=[N+](C(C)C)c4ccc5ccccc5c4C3(C)C)C2=O)C(C)(C)c2c1ccc1ccccc21" . Is its Relative value of degraded rate below 0.5?
class 1

A record lists "CC(C)CCN1C(=CC2=C([O-])C(=CC3=[N+](CCC(C)C)c4ccc5ccccc5c4C3(C)C)C2=O)C(C)(C)c2c1ccc1ccccc21" . Is its Relative value of degraded rate below 0.5?
class 1

A record lists "CCCCCCN1C(=CC2=C([O-])C(=CC3=[N+](CCCCCC)c4ccc5ccccc5c4C3(C)C)C2=O)C(C)(C)c2c1ccc1ccccc21" . Is its Relative value of degraded rate below 0.5?
class 0

A record lists CCCCN1C(=CC2=C([O-])C(=CC3=[N+](CCCC)c4ccc5ccccc5c4C3(C)C)C2=O)C(C)(C)c2c1ccc1ccccc21 [Compound 4] . Is its Relative value of degraded rate below 0.5?
class 0

A record lists "CC(C)CN1C(=CC2=C([O-])C(=CC3=[N+](CC(C)C)c4ccc5ccccc5c4C3(C)C)C2=O)C(C)(C)c2c1ccc1ccccc21" . Is its Relative value of degraded rate below 0.5?
class 1

// data source = patent US5681685A
